Target: Von Hippel-Lindau disease tumor suppressor/Elongin B/Elongin C (Homo sapiens, UniProt P40337)
Sequence (P40337 whole entry, looked up): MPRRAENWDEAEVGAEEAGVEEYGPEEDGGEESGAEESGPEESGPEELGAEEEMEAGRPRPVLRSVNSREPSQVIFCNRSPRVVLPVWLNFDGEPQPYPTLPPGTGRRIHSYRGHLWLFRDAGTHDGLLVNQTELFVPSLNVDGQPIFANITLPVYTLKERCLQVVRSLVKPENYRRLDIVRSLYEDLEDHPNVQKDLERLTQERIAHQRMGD
Test: Displacement of (2S,4R)-N-(4-bromobenzyl)-4-hydroxy-1-(3,3,3-trifluoropropanoyl)pyrrolidine-2-carboxamide from VBC E3 ligase (unknown origin) binary complex by 19F NMR assay
Format: protein-complex assay
Items are presented alongside their recorded pIC50.
Recall that pIC50 is obtained by taking minus log10 of the concentration measured in molar.

Cc1ncsc1-c1ccc(CNC(=O)[C@@H]2C[C@H](O)CN2C(=O)[C@@H](NC(=O)COCCOCCOCCOCCOCC(=O)N[C@H](C(=O)N2C[C@@H](O)C[C@H]2C(=O)NCc2ccc(-c3scnc3C)cc2)C(C)(C)C)C(C)(C)C)cc1; 6.05

// pIC50 lookup, key: CC(=O)N1c2ccc(-c3ccc(C(=O)NCCOCCOCC(=O)N[C@H](C(=O)N4C[C@H](O)C[C@H]4C(=O)NCc4ccc(-c5scnc5C)cc4)C(C)(C)C)cc3)cc2[C@H](Nc2ccc(Cl)cc2)C[C@@H]1C
5.92

Given the entry Cc1ncsc1-c1ccc(CNC(=O)[C@@H]2[C@H](F)[C@@H](O)CN2C(=O)[C@@H](NC(=O)COCCOCCOCCNC(=O)C[C@@H]2N=C(c3ccc(Cl)cc3)c3c(sc(C)c3C)-n3c(C)nnc32)C(C)(C)C)cc1 , report its measured pIC50.
5.52

For the compound shown here, CC(=O)N1c2ccc(-c3ccc(C(=O)NCCOCCOCCOCCOCC(=O)N[C@H](C(=O)N4C[C@H](O)C[C@H]4C(=O)NCc4ccc(-c5scnc5C)cc4)C(C)(C)C)cc3)cc2[C@H](Nc2ccc(Cl)cc2)C[C@@H]1C , give the reported pIC50.
5.94
